So I've got a bunch of binders here, and I need their pKd values.
measured_target: T1, hNPR1-mFc:hANP or hNPR1-hFc:hANP complex (human, UniProt P01160 124-151)
T1 construct: also called human NPR1 complexed to ANP
method_description: SPR, mAb captured, 25C
Protocol: Equilibrium dissociation constant (KD) for different NPR1 reagents binding to purified anti-NPR1 monoclonal antibodies (mAbs) were determined using a real-time surface plasmon resonance based Biacore 4000 biosensor. All binding studies were performed in 10 mM HEPES, 150 mM NaCl, 3 mM EDTA, and 0.05% v/v Surfactant Tween-20, pH 7.4 (HBS-ET) running buffer at 25° C. and 37° C. […]
Give bare numbers, as −log10 of the molar value.

A selection of reference data follows.
- binder: "mAb22805 (antibody, human IgG4, V domains shown) VH: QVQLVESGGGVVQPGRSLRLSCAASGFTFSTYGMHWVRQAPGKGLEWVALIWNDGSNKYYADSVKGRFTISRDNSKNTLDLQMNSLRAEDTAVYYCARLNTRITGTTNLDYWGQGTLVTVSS VL: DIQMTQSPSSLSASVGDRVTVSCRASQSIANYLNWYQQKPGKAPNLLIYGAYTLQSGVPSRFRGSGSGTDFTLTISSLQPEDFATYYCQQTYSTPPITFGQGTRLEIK"
  pKd: 8.48
- binder: "mAb22033 (antibody, human IgG4, V domains shown) VH: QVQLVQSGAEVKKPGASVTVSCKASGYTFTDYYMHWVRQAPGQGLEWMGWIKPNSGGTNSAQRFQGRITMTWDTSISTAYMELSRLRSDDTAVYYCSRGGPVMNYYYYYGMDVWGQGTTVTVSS VL: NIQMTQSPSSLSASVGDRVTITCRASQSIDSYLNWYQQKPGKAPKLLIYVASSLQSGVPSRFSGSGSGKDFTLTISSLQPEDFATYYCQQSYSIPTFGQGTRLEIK"
  pKd: 8.84
- binder: "mAb25491 (antibody, human IgG4, V domains shown) VH: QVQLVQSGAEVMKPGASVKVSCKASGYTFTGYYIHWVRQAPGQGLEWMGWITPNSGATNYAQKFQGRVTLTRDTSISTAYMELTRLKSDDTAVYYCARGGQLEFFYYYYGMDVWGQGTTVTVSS VL: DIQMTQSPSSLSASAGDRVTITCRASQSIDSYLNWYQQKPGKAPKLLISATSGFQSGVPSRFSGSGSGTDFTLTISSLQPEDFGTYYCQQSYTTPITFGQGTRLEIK"
  pKd: 9.10

# ---- query binder ----
Looking for the measured pKd of mAb22809 (antibody, human IgG4, V domains shown) VH: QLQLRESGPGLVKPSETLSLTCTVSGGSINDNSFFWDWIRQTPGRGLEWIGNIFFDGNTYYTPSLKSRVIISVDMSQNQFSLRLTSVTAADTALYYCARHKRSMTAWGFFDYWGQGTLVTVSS VL: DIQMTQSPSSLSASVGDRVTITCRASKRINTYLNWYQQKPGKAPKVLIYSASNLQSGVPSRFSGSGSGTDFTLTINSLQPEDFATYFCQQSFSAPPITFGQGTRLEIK , can you help?
8.31

Hey, just so you know, these numbers are from patent US20240309103A1.
